# test.summary: Solubility of compound in PBS buffer at pH 7.4
# Assay type: physicochemical
measured.parameter: solubility
# answer = value followed by unit

I am curious: what solubility value has been reported for CC(C)N(CCC(O)c1ccc2ccccc2c1)Cc1ccccc1 (racemic) ?
98 µM

---

inhibition values for the compounds below.
# target: Gamma-secretase (Homo sapiens) (UniProt Q96BI3+Q9NZ42+Q8WW43+P49768+Q92542+P49810)
# test.summary: Inhibition of human gamma secretase mediated amyloid beta (1 to 40) production expressed in CHO cells at 100 uM using APP based Flag-C-100 as substrate after 4 hrs by ELISA
# Assay type: cell-based
Please respond with the number in % and leave the unit unwritten.

Use these answered entries as a reference point.
Value wanted: inhibition (Gamma-secretase (Homo sapiens) (UniProt Q96BI3+Q9NZ42+Q8WW43+P49768+Q92542+P49810)) of entry COc1ccc(N2CCN(CCC(O)c3ccc4ccccc4c3)CC2)cc1 (racemic)
0

Identify the measured inhibition of CC(C)N(Cc1ccccc1)CC(O)c1ccc2ccccc2c1 (racemic) for Gamma-secretase (Homo sapiens) (UniProt Q96BI3+Q9NZ42+Q8WW43+P49768+Q92542+P49810).
0

Continuing:
Given the entry CN(CCC(O)c1ccc2ccccc2c1)Cc1ccccc1 (racemic) , what inhibition was observed with Gamma-secretase (Homo sapiens) (UniProt Q96BI3+Q9NZ42+Q8WW43+P49768+Q92542+P49810)?
15

Kindly state the measured inhibition obtained for CC(C)N(CCC(O)c1ccc(OCc2ccccc2)cc1)Cc1ccccc1 (racemic) with Gamma-secretase (Homo sapiens) (UniProt Q96BI3+Q9NZ42+Q8WW43+P49768+Q92542+P49810).
31

Query for Gamma-secretase (Homo sapiens) (UniProt Q96BI3+Q9NZ42+Q8WW43+P49768+Q92542+P49810): what inhibition does the record show for CC(C)N(CCC(O)c1ccccc1)Cc1ccccc1 (racemic) ?
10

Entry Cc1ccc(C(O)CCN(Cc2ccccc2)C(C)C)cc1F (racemic) , system Gamma-secretase (Homo sapiens) (UniProt Q96BI3+Q9NZ42+Q8WW43+P49768+Q92542+P49810): what inhibition was measured?
29

Param readout = inhibition; param system = Gamma-secretase (Homo sapiens) (UniProt Q96BI3+Q9NZ42+Q8WW43+P49768+Q92542+P49810); param query = CC(C)CN(CCC(O)c1ccc2ccccc2c1)Cc1ccccc1 (racemic) ; response: value
0
